- experimentalProtocol: polyglutamine-triggered caspase-3 activation inhibitors, cell-based (AID 1583)
- cond: polyglutamine-induced caspase-3 activation, cell assay; stronger effect = higher value; concentration not given here
resultType: inhibition

inputsmiles=O=C1C=CC(=O)c2c(O)cccc21 valueobserved=-40.3%
inputsmiles=COc1ccc2c(c1)[C@]13CCCC[C@H]1[C@H](C2)N(C)CC3 valueobserved=-11.5%
inputsmiles=Cc1cccc(C)c1NC1=NCCCS1 valueobserved=-1.23%
inputsmiles=CC[C@H]1C(=O)OC[C@@H]1Cc1cccn1C valueobserved=-1.44%

* * *

- experimentalProtocol: LFS_MB_1R medulloblastoma cell growth inhibition, synergistic combos for chromothripsis tumors, cisplatin or BGB combos (AID 1671452);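 note: cells exposed for 96 hours before readout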
- cond: LFS_MB_1R medulloblastoma cells, measured here: combination with cisplatin, at 0.5 µM, stronger effect = higher value
resultType: inhibition (%)

molecule=Cn1c(COP(=O)(NCCBr)NCCBr)cnc1[N+](=O)[O-] resulttype=inhibition valueobserved=-60.8
molecule=O=C(O)CCCc1ccc(N(CCCl)CCCl)cc1 resulttype=inhibition valueobserved=34.7
molecule=CCC1(c2ccccc2)C(=O)NC(=O)NC1=O resulttype=inhibition valueobserved=-10.4
molecule=CN(C)NC(=O)CCC(=O)O resulttype=inhibition valueobserved=18.7
molecule="NC(Cc1ccc(N(CCCl)CCCl)cc1)C(=O)O (stereo unspecified)" resulttype=inhibition valueobserved=-42.9
molecule="O=c1[nH]c(=O)n(C2OC(CO)C(O)C2O)cc1F (stereo unspecified)" resulttype=inhibition valueobserved=-2.35
